system name: UniProt:P14902
Sequence (P14902 whole entry): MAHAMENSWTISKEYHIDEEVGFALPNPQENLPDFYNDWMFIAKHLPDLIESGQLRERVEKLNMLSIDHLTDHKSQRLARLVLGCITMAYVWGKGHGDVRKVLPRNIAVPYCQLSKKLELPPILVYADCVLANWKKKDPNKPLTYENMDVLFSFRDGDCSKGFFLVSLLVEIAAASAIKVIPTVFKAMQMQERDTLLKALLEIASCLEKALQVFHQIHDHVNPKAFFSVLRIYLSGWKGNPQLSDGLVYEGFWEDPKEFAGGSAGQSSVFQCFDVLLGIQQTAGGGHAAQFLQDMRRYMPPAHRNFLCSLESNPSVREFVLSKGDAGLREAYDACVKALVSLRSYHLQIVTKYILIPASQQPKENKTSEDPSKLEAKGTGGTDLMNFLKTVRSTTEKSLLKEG
assay name: SKOV3 kynurenine cell-based assay (IDO induced by IFN-γ)
Design: IDO expression was induced in the SKOV3 cells by the addition of 500 ng/ml IFN-γ; endogenous in cells; host or cells: SKOV3 (human ovarian adenocarcinoma), induced with IFN-γ
condition parameters: SKOV3 human ovarian adenocarcinoma cells, 500 ng/ml IFN-γ, 48 hours, 500 μM L-tryptophan; read-out: SKOV3 Kynurenine cell based assay pIC50 (converted)
Entries and their IC50 values follow.

Recorded results for 4 compounds are shown here.
CC(=O)NC1CCN(c2cc(Cl)cc3[nH]ncc23)CC1(C)C (centres unmarked) [Compound 335]    3.24 to 31.6 µM
CS(=O)(=O)NCC1CCCN(c2cc(Cl)cc3[nH]ncc23)C1 (centres unmarked) [Compound 284]    32.4 to 100 µM
CN(C)S(=O)(=O)N1CCC(c2cc(Cl)cc3[nH]ncc23)CC1 [Compound 173]    3.24 to 31.6 µM
CC(=O)N1CCN(c2cc(Cl)cc3c(N)n[nH]c23)CC1(C)C [Compound 307]    3.24 to 31.6 µM

Value of IC50 reported for the compound CCCS(=O)(=O)N1CCN(c2cccc3[nH]ncc23)CC1 [Compound 16] is 32.4 to 100 µM
